Biological target: human Cystic Fibrosis Transmembrane Conductance Regulator (CFTR) harboring the ΔF508 mutation (Homo sapiens, UniProt P13569, DEL508-508)
Sequence (P13569 with tags, fused parts or gaps DEL508-508): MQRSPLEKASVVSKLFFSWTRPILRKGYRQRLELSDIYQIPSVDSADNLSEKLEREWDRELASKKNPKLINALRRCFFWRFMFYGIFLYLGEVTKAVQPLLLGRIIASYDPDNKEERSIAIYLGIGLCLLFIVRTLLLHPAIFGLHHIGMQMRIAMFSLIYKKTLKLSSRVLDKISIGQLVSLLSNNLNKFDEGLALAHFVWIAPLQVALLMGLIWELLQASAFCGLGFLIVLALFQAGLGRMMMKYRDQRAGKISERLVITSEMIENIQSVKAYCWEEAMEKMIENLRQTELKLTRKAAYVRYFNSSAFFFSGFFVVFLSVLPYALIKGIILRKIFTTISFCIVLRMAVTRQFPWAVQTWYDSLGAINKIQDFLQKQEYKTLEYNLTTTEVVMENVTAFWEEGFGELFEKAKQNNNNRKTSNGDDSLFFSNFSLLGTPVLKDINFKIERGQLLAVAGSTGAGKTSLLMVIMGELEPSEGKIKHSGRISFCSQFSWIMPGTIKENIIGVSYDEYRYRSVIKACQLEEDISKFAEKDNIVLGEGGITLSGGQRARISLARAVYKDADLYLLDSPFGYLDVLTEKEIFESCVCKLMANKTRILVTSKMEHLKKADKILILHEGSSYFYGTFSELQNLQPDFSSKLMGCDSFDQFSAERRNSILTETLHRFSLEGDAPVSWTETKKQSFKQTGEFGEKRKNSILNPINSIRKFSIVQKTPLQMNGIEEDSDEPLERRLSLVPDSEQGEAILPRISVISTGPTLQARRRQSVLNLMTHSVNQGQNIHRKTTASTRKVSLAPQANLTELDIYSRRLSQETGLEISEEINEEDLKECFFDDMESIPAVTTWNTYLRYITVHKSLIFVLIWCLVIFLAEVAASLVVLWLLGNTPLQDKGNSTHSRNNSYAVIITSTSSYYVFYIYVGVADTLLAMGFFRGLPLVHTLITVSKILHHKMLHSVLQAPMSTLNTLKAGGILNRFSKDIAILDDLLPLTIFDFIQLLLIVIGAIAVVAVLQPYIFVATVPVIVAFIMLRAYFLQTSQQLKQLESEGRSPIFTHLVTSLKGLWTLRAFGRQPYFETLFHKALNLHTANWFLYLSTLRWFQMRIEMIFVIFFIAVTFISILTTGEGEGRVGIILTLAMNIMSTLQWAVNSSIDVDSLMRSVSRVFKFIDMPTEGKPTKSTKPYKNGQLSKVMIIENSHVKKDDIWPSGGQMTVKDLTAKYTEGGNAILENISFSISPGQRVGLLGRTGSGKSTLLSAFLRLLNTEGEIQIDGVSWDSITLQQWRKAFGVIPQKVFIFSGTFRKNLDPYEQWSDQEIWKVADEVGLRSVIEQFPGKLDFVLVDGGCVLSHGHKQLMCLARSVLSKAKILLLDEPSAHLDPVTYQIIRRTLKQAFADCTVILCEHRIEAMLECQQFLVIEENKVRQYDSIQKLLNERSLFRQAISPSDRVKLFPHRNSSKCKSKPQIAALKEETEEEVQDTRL
Experiment: H441 cell ΔF508-CFTR-HRP cell surface assay (Emax and EC50)
Decide using EC50 alone. Strictly below 1 µM: true (1). Equal to or above 1 µM: false (0).

Hello, is EC50 of the following molecule strictly smaller than 1 µM? `CC(C)(C)[C@H](NC(=O)c1ccc2c(F)cccc2c1OCc1ccc(OC(F)(F)F)cc1)C(=O)O` false (0)

EC50 under 1 µM? Item: `O=C(N[C@H](C(=O)O)C(c1ccccc1)c1ccccc1)c1ccc2ccccc2c1OCc1ccc(C(F)(F)F)c(F)c1` true (1)

Confirm or reject: EC50 of `CCC(C)(C)[C@H](NC(=O)c1ccc2c(F)cc(C)cc2c1OCc1ccc(OC(F)(F)F)cc1)C(=O)O` lies strictly below 1 µM true (1)

Strictly below 1 µM: is that where EC50 of `CCC(C)(C)[C@H](NC(=O)c1ccc2cc(OC)ccc2c1OCc1ccc(C(F)(F)F)cc1)C(=O)O` sits? false (0)

I'd appreciate it if you could check whether O=C(NC(C(=O)O)C(C(F)(F)F)C(F)(F)F)c1ccc2ccccc2c1OCC1CCCCC1 (stereo not shown) has EC50 smaller than 1 µM. false (0)

Please let me know if `O=C(N[C@@H](Cc1ccc(C(F)(F)F)cc1)C(=O)O)c1ccc2cc(F)ccc2c1OCc1nc2ccccc2s1` shows EC50 below 1 µM. false (0)

Lab note: confirm whether the reported EC50 for this molecule is below 1 µM, equality not counting. molecule: `CC(C)(C)[C@H](NC(=O)c1ccc2ccc(C#N)cc2c1OCc1ccc(C(F)(F)F)cc1)C(=O)O` false (0)

----------
Molecular target: human Cystic Fibrosis Transmembrane Conductance Regulator (CFTR) harboring the ΔF508 mutation (Homo sapiens, UniProt P13569, DEL508-508)
Construct: expressed in transfected cells; host or cells: H441 carcinoma line (G418-selected)
Assay: H441 cell ΔF508-CFTR-HRP cell surface assay (Emax and EC50)
Format: cell-based
Details: NCI-H441, NA = Not active
Label key: TRUE means Emax under 90%; FALSE means Emax of 90% or more.

Please check: Emax for CC(C)(C)[C@H](NC(=O)c1ccc2ccccc2c1OCc1ccc(C#N)cc1)C(=O)O [Example 31] , strictly under 90% or not? TRUE

Item CC(C)(C)[C@H](NC(=O)c1ccc2ccccc2c1OCc1ccc(C(F)(F)F)cc1F)C(=O)O [Example 70] : Emax beneath 90%, strictly? FALSE

Confirm or reject: Emax of CC1([C@H](NC(=O)c2ccc3ccc(Cl)cc3c2OCc2ccc(C(F)(F)F)cc2)C(=O)O)CCCC1 [Example 302] lies strictly below 90% FALSE

I wonder whether CC(C)(C)[C@H](NC(=O)c1ccc2ccccc2c1OCC1CCCCC1)C(=O)O [Example 72] has Emax below 90%. Can you tell? FALSE

Is 90% strictly greater than the compound's reported Emax? compound: CC(C)(c1ccccc1)[C@H](NC(=O)c1ccc2cc(F)ccc2c1OCC1CCC(F)(F)CC1)C(=O)O [Example 7] TRUE

In the record for CC(C)(S[C@@H]1C[C@@H]2CC[C@H]1C2)[C@H](NC(=O)c1ccc2cc(F)ccc2c1OCc1ccc(SC(F)(F)F)cc1)C(=O)O [Example 177] , is Emax less than 90%? TRUE

Dear colleague, could you confirm whether Emax of Cc1cc(F)c2ccc(C(=O)N[C@H](C(=O)O)C(C)(C)C)c(OCc3ccc(OC(F)(F)F)cc3)c2c1 [Example 271] falls below 90%? Thanks. FALSE

A record lists O=C(NC(C(=O)O)C(C(F)(F)F)C(F)(F)F)c1ccc2ccccc2c1OCc1ccc(C(F)(F)F)cc1 (stereo not drawn) [Example 181] . Is its Emax below 90%? FALSE

Is it true that Emax reported for N#Cc1ccc(COc2c(C(=O)N[C@@H](Cc3ccccc3)C(=O)O)ccc3ccccc23)cc1 [Example 125] is less than 90%? TRUE

# strict comparison: is reported Emax < 90%? input = COc1ccc2ccc(C(=O)N[C@H](C(=O)O)C(C)(C)C)c(OCc3ccc(C(F)(F)F)cc3)c2c1 [Example 308] FALSE

Item CCC(C)(C)[C@H](NC(=O)c1ccc2ccc(C(F)F)cc2c1OCc1ccc(C(F)(F)F)cc1)C(=O)O [Example 242] : Emax beneath 90%, strictly? FALSE

Please indicate whether the reported Emax of O=C(N[C@@H](Cc1ccc(C(F)(F)F)cc1)C(=O)O)c1ccc2ccccc2c1OCc1ccc(C(F)(F)F)cc1 [Example 104] is strictly below 90%. TRUE

I'd appreciate it if you could check whether CC1(C(NC(=O)c2ccc3ccccc3c2OCc2ccc(S(C)(=O)=O)cc2)C(=O)O)CCCCC1 (stereo not drawn) [Example 44] has Emax smaller than 90%. TRUE

Record CCCC(C)(CC)[C@H](NC(=O)c1ccc2ccc(F)cc2c1OCc1ccc(OC(F)(F)F)cc1)C(=O)O (stereo partly drawn) [compound 290] : is its Emax strictly below 90%? FALSE

The measured values listed here are drawn from patent US12630498B2.
